biological target: GlcNAc(b1-3)Gal(b1-4)GlcNAc(b1-3)Gal(b1-4)GlcNAc(b1-2)Man(a1-3)[GlcNAc(b1-3)Gal(b1-4)GlcNAc(b1-3)Gal(b1-4)GlcNAc(b1-2)Man(a1-6)]Man(b1-4)GlcNAc(b1-4)[Fuc(a1-6)]GlcNAc; assay: glycan array binding signal (z-score within array); higher = stronger binding; details: glycan notation: IUPAC condensed, linker removed
This is one part of a sample in which the strongest signals are shown more often than they occur.

BINDER: Protein L(B1-B4) (Finegoldia magna), Q51912 (protein) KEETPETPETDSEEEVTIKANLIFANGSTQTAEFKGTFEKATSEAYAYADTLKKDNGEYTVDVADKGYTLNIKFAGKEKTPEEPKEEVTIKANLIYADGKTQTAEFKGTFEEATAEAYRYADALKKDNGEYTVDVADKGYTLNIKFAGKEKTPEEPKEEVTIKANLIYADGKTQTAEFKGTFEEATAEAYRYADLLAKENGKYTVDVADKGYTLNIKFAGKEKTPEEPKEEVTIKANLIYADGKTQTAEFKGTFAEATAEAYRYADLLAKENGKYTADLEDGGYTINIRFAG
glycan array binding signal (z-score): 3.07
